Tested on: oxazolone-induced ear swelling (MOCH) in albino male CD-1 mice
method summary: mouse oxazolone-induced contact hypersensitization (MOCH) ear swelling
Format: in vivo
condition description: topical to mouse ear, 1 mg, one hour after oxazolone challenge, ear biopsy weight at 24 hours
Entry flag: Y if Oxazolone Ear Swelling (MOCH) % inhibition vs. Vehicle at 1 mg reaches 30%; N if it does not.

O=C(NCC1(c2ccccc2)CC1(c1ccccc1)c1ccccc1)Nc1ccccc1F (stereo not drawn) [Compound 93] : N

Evaluate COc1ccccc1NC(=O)NCC1(c2ccccc2)CC1(c1ccccc1)c1ccccc1 (stereo not drawn) [Compound 94] : Oxazolone Ear Swelling (MOCH) % inhibition vs. Vehicle at 1 mg at minimum 30%? Y

Decide: is the reported value of Oxazolone Ear Swelling (MOCH) % inhibition vs. Vehicle at 1 mg for CC(C)CC(=O)NCC1(c2ccccc2)CC1(c1ccccc1)c1ccccc1 (stereo not drawn) [Compound 85] equal to or greater than 30%? N

Answer whether Oxazolone Ear Swelling (MOCH) % inhibition vs. Vehicle at 1 mg of O=C(Cc1ccc(Cl)cc1)NCC(c1ccc2c(c1)OCO2)C(c1ccccc1)c1ccccc1 (stereo not drawn) [Compound 98] is greater than or equal to 30%. Y

API: above_or_equal(metric=Oxazolone Ear Swelling (MOCH) % inhibition vs. Vehicle at 1 mg, cutoff=30%) for item COc1ccccc1CC(=O)NCC(c1ccccc1)C(c1ccccc1)c1ccccc1 (stereo not drawn) [Compound 5] N

I'd appreciate it if you could say whether Cc1ccc(C(=O)NCC(c2ccccc2)C2c3ccccc3-c3ccccc32)s1 (stereo not drawn) [Compound 72] has Oxazolone Ear Swelling (MOCH) % inhibition vs. Vehicle at 1 mg at least equal to 30%. Y

----------
System: human progesterone receptor (hPR)
method summary: human progesterone receptor binding assay (displacement of 3(H) R5020 Promegestone)
Procedure: A human progesterone receptor binding assay was performed in order to determine selectivity of the compounds, as follows. […] The filter mate with 96 samples were bound to a solid-phase scintillant and directly counted in the BETAPLATE counter. […] The activity of test compounds to displace 3(H) R5020 binding to hPR is expressed as percent inhibition at the two concentrations, 10^−6 and 10^−5 Molar.
property name: hPR % inh 10 μM (%)
Return type: number; implicit unit %.

COc1ccccc1NC(=O)NCC1(c2ccccc2)CC1(c1ccccc1)c1ccccc1 (centres unmarked) : −18.6
O=C(Cc1ccccc1)NCC(c1ccccc1)C(c1ccc(F)cc1)c1ccc(F)cc1 (centres unmarked) : 14.1
O=C(Cc1ccccc1C(F)(F)F)NCC(c1ccccc1)C(c1ccccc1)c1ccccc1 (centres unmarked) : 15
O=C(NCC1(c2ccccc2)CC1(c1ccccc1)c1ccccc1)Oc1ccc(Cl)cc1 (centres unmarked) : 12.5
O=C(NCC1(c2ccccc2)CC1(c1ccccc1)c1ccccc1)Oc1ccccc1 (centres unmarked) : 9.9

Hello, please tell me recorded hPR % inh 10 μM for this one: O=C(Cc1ccccc1)NCC(c1ccc(Cl)cc1)C(c1ccccc1)c1ccccc1 (centres unmarked) 18

Look up and state reported hPR % inh 10 μM for O=C(CCc1c[nH]c2ccccc12)NCC(c1ccccc1)C(c1ccccc1)c1ccccc1 (centres unmarked) 19

Provide hPR % inh 10 μM value for the following molecule: O=C(Cc1ccccc1)NCC(c1ccccc1)C1c2ccccc2-c2ccccc21 (centres unmarked) 18

Give the measured hPR % inh 10 μM for COc1ccc(CC(=O)NCC2(c3ccccc3)CC2(c2ccccc2)c2ccccc2)cc1OC (centres unmarked) 24.5

Identify the reported hPR % inh 10 μM for the following entry. O=C(Cc1ccsc1)NCC1(c2ccccc2)CC1(c1ccccc1)c1ccccc1 (centres unmarked) 22

----------
Reported hPR % inh 10 μM values for a set of compounds
Tested on: human progesterone receptor (hPR)
method summary: human progesterone receptor binding assay (displacement of 3(H) R5020 Promegestone)
Expressed in %, but write only the number.

// known answers, use as guide
O=C(Cc1ccccc1)NCC1(c2ccccc2)CC1(c1ccccc1)c1ccccc1 (stereo not drawn) : 6
O=C(NCC(c1ccccc1)C(c1ccccc1)c1ccccc1)c1cccs1 (stereo not drawn) : 5
O=C(Cc1ccccc1)NCC(c1ccccc1)C(c1ccccc1)c1ccccc1 (stereo not drawn) : −0.2
O=C(CCc1ccccc1)NCC(c1ccccc1)C(c1ccccc1)c1ccccc1 (stereo not drawn) : 24

For the compound O=C(NCC1(c2ccccc2)CC1(c1ccccc1)c1ccccc1)Nc1ccccc1 (stereo not drawn) , give its measured hPR % inh 10 μM value. −1

State its hPR % inh 10 μM: O=C(Cc1cccs1)NCC(c1ccc(Cl)cc1)C(c1ccccc1)c1ccccc1 (stereo not drawn) 17

----------
System: human progesterone receptor (hPR)
method summary: human progesterone receptor binding assay (displacement of 3(H) R5020 Promegestone)
property name: hPR % inh 10 μM (%)
State just the number; it will be interpreted in %.

COc1ccccc1CCC(=O)NCC(c1ccccc1)C(c1ccccc1)c1ccccc1 (stereo not shown) : 9
O=C(NCC1(c2ccccc2)CC1(c1ccccc1)c1ccccc1)C(c1ccccc1)c1ccccc1 (stereo not shown) : −20.4
O=C(Cc1ccsc1)NCC(c1ccccc1)C(c1ccccc1)c1ccccc1 (stereo not shown) : 22

Let's switch to this compound now.
Kindly indicate its recorded hPR % inh 10 μM. Item: O=C(CCCc1cccs1)NCC(c1ccccc1)C(c1ccccc1)c1ccccc1 (stereo not shown) 4

----------
Test system: human progesterone receptor (hPR)
method summary: human progesterone receptor binding assay (displacement of 3(H) R5020 Promegestone)
Protocol: A human progesterone receptor binding assay was performed in order to determine selectivity of the compounds, as follows. […] The filter mate with 96 samples were bound to a solid-phase scintillant and directly counted in the BETAPLATE counter. […] The activity of test compounds to displace 3(H) R5020 binding to hPR is expressed as percent inhibition at the two concentrations, 10^−6 and 10^−5 Molar.
property name: hPR % inh 10 μM (%)
The response must be a number in % with no trailing unit.

O=C(Cc1c(Cl)cccc1Cl)NCC(c1ccccc1)C(c1ccccc1)c1ccccc1 (stereo not shown) [Compound 8] : 3
O=C(Cc1ccc(Cl)cc1)NCC(c1ccccc1)C(c1ccccc1)c1ccccc1 (stereo not shown) [Compound 3] : 4
O=C(NCc1ccccc1)NCC1(c2ccccc2)CC1(c1ccccc1)c1ccccc1 (stereo not shown) [Compound 95] : −14.3
O=C(NCC(c1ccccc1)C(c1ccccc1)c1ccccc1)c1ccsc1 (stereo not shown) [Compound 42] : 18
Cc1ccc(CC(=O)NCC(c2ccccc2)C(c2ccccc2)c2ccccc2)cc1 (stereo not shown) [Compound 4] : 12

// below: hPR % inh 10 μM requested for another molecule
Please report hPR % inh 10 μM for the following molecule: O=C(Cc1cccs1)NCC(c1ccccc1)C(c1ccccc1)c1ccccc1 (stereo not shown) [Compound 29] 28.3
